# Tested on: T-47D breast
# ASSAY TEXT: NCI-60 one-dose screen, 48 h (100 = growth as untreated, 0 = no growth, -100 = all killed)
# CONDITION SUMMARY: 10 µM unless noted
About 83,000 compounds went through this panel and 20% of them were active in at least one assay; those are over-represented in the sample as a whole.
Label condition met for high-side growth (at or above 50%) and condition not met for low-side growth (below it).

# MOLECULE, SYSTEM UNDER TEST, ANSWER LABEL
records = [
    ("COc1cc(CNC(=O)/C=C/C=C/c2ccc3c(c2)OCO3)ccc1OCc1cn(-c2ccc(C)c(C)c2)nn1", "T-47D breast", "condition met"),
    ("C#CCOc1cccc(Nc2ncnc3ccc(NC(=O)CCl)cc23)c1", "T-47D breast", "condition not met"),
    ("O=C(O)[C@@H]1c2ccccc2-c2ccccc2[C@H]1C(=O)O", "T-47D breast", "condition met"),
]

Attention now turns to another entry.
QUERY: Hello, I need to know if `O=C(CSc1nc(-c2ccccc2)[nH]c1S(=O)(=O)c1ccccc1)NC1CC1` has measured growth not below 50%. Thanks!
RESULT: condition not met
